Where do the numbers come from? From the OligoGym collection.

Listed here are sequences together with their documented remaining target (mRNA or protein) (fraction of control).
molecular target: PTPN11; details: ASO; further: test concentration or dose not given here
These antisense oligonucleotides have a phosphorothioate backbone; sugars and methylation of C are not fully specified.
Measured metric: remaining target (mRNA or protein) (fraction of control)

| Record sequence | Operator | Numeric result |
| --- | --- | --- |
| CGATGTCATGTTCCTCCCGC | = | 0.4 |
| ACCATCTCCGCGATGTCATG | = | 0.33 |
| CATGTTCCTCCCGCCCTCCG | = | 0.29 |
| GTCATGTTCCTCCCGCCCTC | = | 0.24 |
| ATGTCATGTTCCTCCCGCCC | = | 0.43 |
| GGCAGGTTTTCTCATCTGAA | = | 0.84 |
| TGTTCCTCCCGCCCTCCGGC | ≥ | 1 |
| ATCTGCACAGTTCAGAGGAT | = | 0.51 |

====

Listed here are sequences together with their documented remaining target (mRNA or protein) (fraction of control).
biological target: FADD; conditions: ASO
These antisense oligonucleotides have a phosphorothioate backbone; sugars and methylation of C are not fully specified.
Measured metric: remaining target (mRNA or protein) (fraction of control)

| Record sequence | Operator | Numeric result |
| --- | --- | --- |
| GGACCACGGCCAACCAGG | = | 0.58 |
| GGTTCCAACTTTCCAACT | = | 0.97 |
| GCTGGGCTACCTTCCTGG | ≥ | 1 |
| CACCACAGCACCCCGCCT | = | 0.95 |
| CCCCGCCTCGAAGTCGTC | = | 0.82 |

====

molecular target: IKBKB; details: ASO
These antisense oligonucleotides have a phosphorothioate backbone; sugars and methylation of C are not fully specified.
Measured metric: remaining target (mRNA or protein) (fraction of control)

| Record sequence | Operator | Numeric result |
| --- | --- | --- |
| TGAGTCTCATAGGTGATT | ≥ | 1 |
| GTTCCATTCAAGTCTTCG | = | 0.78 |
| ATCCTAGGTCAATAATTT | = | 0.97 |
| GCTCAGGTAAGCTGTTGG | = | 0.45 |
| TTCAAGATATGAACCAGC | = | 0.54 |
| CAGCTGTGCTCTTCTTCT | = | 0.75 |
| AGGGTGCAGAGGTTATGT | = | 0.48 |
| ACTGGTTCAGGTACTTCC | = | 0.88 |
| TTTCACTTCGTTCTCCCG | = | 0.33 |
| CTGAGTGGCAGGCTTATC | = | 0.28 |
| ACTCAAAGGCCAGGGTGC | = | 0.59 |
| TCCTGTACAGCTCCCTTG | = | 0.13 |
| GGAGAGGCAGCTGTTGTT | = | 0.43 |
| CTGTCCCAAGGCGCTCTT | = | 0.42 |
| TTAACTTGCCGTCTGAAA | = | 0.8 |
| CTTCTGCTTGCAAACCAC | = | 0.82 |
| CGTGAAACTCTGGTCTTG | = | 0.48 |
| TTAAGATGTCATCCAGGG | ≥ | 1 |
| TGATGGCAATCTGCTCAC | ≥ | 1 |
| TTGGCCTTGAGCTGCTGA | = | 0.31 |
| CTCAGCTGGAAGAAGGCG | = | 0.4 |
| GCCAGGACACTGTTAAGA | = | 0.43 |
| GAGGAGATTCATCATGGC | = | 0.97 |
| TGTAAGTCCACAATGTCG | = | 0.61 |
| CACAGGGTAGGTGTGGAT | = | 0.6 |
| AATGTCACTCAGCAAGGT | = | 0.25 |
| TGTATTAACCTCTGTTCT | ≥ | 1 |
| ACTTCTGCTGCTCCAGTA | = | 0.58 |
| TGCACGGGCTGCCAGTTG | = | 0.46 |
| GGGAAGGTGACCAGCTCA | = | 0.3 |
| CTTCGCTAACAACAATGT | ≥ | 1 |

====

target: DUSP8; conditions: ASO
These antisense oligonucleotides have a phosphorothioate backbone; sugars and methylation of C are not fully specified.
Listed here are sequences together with their documented remaining target (mRNA or protein) (fraction of control).
Measured metric: remaining target (mRNA or protein) (fraction of control)

| Record sequence | Operator | Numeric result |
| --- | --- | --- |
| GAGAGCTTGGCTTTATCGAT | = | 0.68 |
| CAGGCTTGCCCTCGCAGAGG | ≥ | 1 |
| CTCAGGCCGCCCTCCCTGGC | = | 0.65 |
| GCCTGTCCTTCACGAACCTG | ≥ | 1 |
| GAGCTCGAGGACCACCCGCA | = | 0.89 |
| CACCATGCCCTCCTCGAACT | = | 0.84 |
| CCCAGGCCCGCCCCGCAGCA | = | 0.66 |
| GGCTGCTCCGACGGCCCAGG | ≥ | 1 |
| GCTGGACCTCGCTCGCGCTC | ≥ | 1 |
| CCGACGGGCTGTCCAGCTTG | = | 0.94 |
| GTCAGGACACCTCGATGACC | ≥ | 1 |
| GGAGAAGGAGCGCTTGAGGC | = | 0.98 |
| CCCGTCGGGCGACGGCGTGC | ≥ | 1 |
| ACCTGGCTGCGTGCAGCCGG | ≥ | 1 |
| AAGCTGTCTGCGGCCAGCAC | = | 0.71 |
| GTCGAAGCAGCCGTCCAGCT | ≥ | 1 |

====

target: INPPL1; details: ASO
These antisense oligonucleotides have a phosphorothioate backbone; sugars and methylation of C are not fully specified.
Rule: remaining target (mRNA or protein) (fraction of control) below 0.9 gives True. Equal to or above 0.9 gives False.

| Record sequence | Category |
| --- | --- |
| TCCAAGTCCTCCTCGGTG | False |
| CCATAGGATTCATAGCCA | False |
| GACATCACGCCGCAACCC | True |
| TGCCCCACCCCAACCAAC | False |
| GACAGCACCAGAGTAACC | True |
| CGCTCTCGCTGTCTCGGA | False |
| TCCAGGCAGGTAGAGTAG | False |
| GTGCCTATGAAGACTGAG | True |
| TCTGTGACTTCCCAATCT | False |
| TCCGTCCTGAGCCTAAAA | True |
| CCAACCTCAAATGTCCCA | False |
| CGTTGGTGGCGGTTTCTC | False |
| CAGGCGGTAGTTGAGGTC | False |
| CTCTGGTTCTTCAAATAA | False |

====

target: TRADD; conditions: ASO
These antisense oligonucleotides have a phosphorothioate backbone; sugars and methylation of C are not fully specified.
Listed here are sequences together with their documented remaining target (mRNA or protein) (fraction of control).
Measured metric: remaining target (mRNA or protein) (fraction of control)

| Record sequence | Tested on | Result |
| --- | --- | --- |
| CGTAGGCCAGCGAGTCCA | TRADD | ≥ 1 |
| TGGCTGCACCCCTGGTCT | TRADD | ≥ 1 |
| CACCCACTCTTCGTGCCC | TRADD | ≥ 1 |
| ATGAAGTCCAGGACACCA | TRADD | ≥ 1 |
| GGGAAGGCAATCAACTCT | TRADD | ≥ 1 |
| TCTATCAAAGTACCTGAG | TRADD | ≥ 1 |
| AGCTCCAGTTGCAGCGGC | TRADD | 0.82 |
| GGATCTTCAGCATCTGCA | TRADD | ≥ 1 |
| AATAGCCGCAGAAGGAAC | TRADD | 0.83 |
| TCACTACAGGCTGACCCT | TRADD | 0.74 |
| GCACGAAGCGCCGCAGCA | TRADD | ≥ 1 |
| GAGTCCAGCGCCGGGTCC | TRADD | 0.48 |
| CAGGCCGCCATTGGGATC | TRADD | ≥ 1 |
| CGGTCGGGCTGCTGGGCT | TRADD | ≥ 1 |
| AAAGTCTGGGCAGGTGGC | TRADD | 0.56 |
| CTGTTTTACTTCACTGCA | TRADD | ≥ 1 |
| AGCGGCACCGAGTGCTGG | TRADD | ≥ 1 |

====

Listed here are sequences together with their documented remaining target (mRNA or protein) (fraction of control).
target: GNAI3; conditions: ASO
These antisense oligonucleotides have a phosphorothioate backbone; sugars and methylation of C are not fully specified.
Measured metric: remaining target (mRNA or protein) (fraction of control)

| Record sequence | Result |
| --- | --- |
| AGCCAGAACAAGGTCATA | 0.88 |
| CCATGCTTCTCAATAAAG | 0.58 |
| AAGGTGTCTGGTCTCAAC | 0.56 |
| TAAAGTTATTCTTCTCTT | 0.88 |
| TATTGGAACCTGTGTATT | 0.54 |
| GGTATCTTTTCTTCTGTT | 0.48 |
| CTTCTCAATAAAGTCCAC | 0.65 |
| CAATCTTTAGCCGTCCCA | 0.49 |
| AATTCCAATGTCTGACTT | 0.51 |
| TGGCACAGGTGAAGTGAG | 0.29 |
| GTGTTTCTACAATGCCTG | 0.37 |
| AGAGAATGATTGAAGTTT | 0.99 |
| GACTCCTTCTTCAGCACT | 0.48 |
| AGGTCATAATCACTGAGG | 0.75 |
| ACAATGCCTGTGGTCTTC | ≥ 1 |
| AATGTAGTTAGACTGGGA | 0.46 |
| TGGTCTTCACTCTCGTCC | 0.21 |
| ACTCCACACTGTAGTAAC | 0.45 |
| GTCTGACTTTAGCATCTC | 0.56 |
| AATGATTGAAGTTTCTGT | 0.73 |
| ATCTCCTTGGTATCTTTT | 0.33 |
| TAACGGACTCCTCTTTAT | 0.25 |
| AAGTTCCCTAATACAAAA | 0.85 |
| AAATGTGTTTCTACAATG | 0.9 |
| TTAAGAAATCCAAGTGAT | ≥ 1 |
| CATCTTGCTGAGTTGGAA | 0.34 |
| TCAACTTCACATCTTCCA | 0.62 |
| ATGCAGCACCTCAACTTC | 0.4 |
| CAATAAAGTCCACATTCC | ≥ 1 |
| CCACCATCTCGCCATAAC | 0.77 |
| CATGAGACAGCAAAAGGT | 0.92 |
| TCACTCTCGTCCGAAGAA | 0.41 |
| TTAAGGAAGAGAATGATT | ≥ 1 |
| ATCTTGCTTCGCTCCACT | 0.63 |
| GAGTTGGAATGTAGTTAG | 0.56 |
